Source: patent US11492335B2

# assay-target: recombinant human DAO (diamine oxidase) (Homo sapiens)
# Construct: purchased R&D systems
# Sequence (P19801 20-751): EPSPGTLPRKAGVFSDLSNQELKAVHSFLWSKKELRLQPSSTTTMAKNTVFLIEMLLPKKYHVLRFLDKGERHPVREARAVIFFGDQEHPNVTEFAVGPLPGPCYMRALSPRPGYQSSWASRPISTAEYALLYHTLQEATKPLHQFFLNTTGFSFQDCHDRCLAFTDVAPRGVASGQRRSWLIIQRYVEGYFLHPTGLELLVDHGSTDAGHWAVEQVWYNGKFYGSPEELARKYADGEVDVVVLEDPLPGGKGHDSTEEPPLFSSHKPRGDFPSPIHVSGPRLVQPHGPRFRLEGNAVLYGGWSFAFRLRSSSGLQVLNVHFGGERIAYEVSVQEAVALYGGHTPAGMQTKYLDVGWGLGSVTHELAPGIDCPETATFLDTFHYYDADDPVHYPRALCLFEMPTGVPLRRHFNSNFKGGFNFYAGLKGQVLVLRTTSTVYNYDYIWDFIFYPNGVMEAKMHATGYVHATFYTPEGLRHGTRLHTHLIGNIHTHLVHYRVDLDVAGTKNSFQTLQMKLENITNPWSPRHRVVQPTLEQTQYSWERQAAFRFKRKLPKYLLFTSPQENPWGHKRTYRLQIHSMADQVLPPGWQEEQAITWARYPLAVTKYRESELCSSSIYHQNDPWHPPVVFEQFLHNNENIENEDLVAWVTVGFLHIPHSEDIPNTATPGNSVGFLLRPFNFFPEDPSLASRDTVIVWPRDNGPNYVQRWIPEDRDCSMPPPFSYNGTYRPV
# test-description: Activity on recombinant human DAO, Amplex Red method, 1 mM putrescine substrate
# Assay type: biochemical
# experimental-setup: recombinant human DAO, 1 mM putrescine; * = between 10 and 100 nM, ** = between 300 and 1000 nM; read-out: Inhibitory Activity (IC50, nM) DAO
Where a name gives a salt, the structure may show the parent alone.
property-label: IC50 (nM)
Report the figure in nM without appending any unit label.

// solved cases for IC50 follow
{"compound": "Cc1cc(-n2cnn(C/C(=C/F)CN)c2=O)cnc1-c1ccc2sc(N)nc2c1 [Example 118, hydrochloride]", "quantity-unit": "nM", "IC50": 1.7}
{"compound": "NC/C(=C\\F)Cn1ncn(-c2cccc(-c3ccc4c(c3)NC(=O)CO4)c2)c1=O [Example 103, hydrochloride]", "quantity-unit": "nM", "IC50": 2.5}

Data request: State its IC50: NC/C(=C/F)Cn1ncn(-c2c(F)cc(Br)cc2F)c1=O [Example 21, hydrochloride]
Data returned: 333

Data request: State its IC50: NC/C(=C\F)Cn1ncn(-c2ccc(OCc3ccccc3)cc2)c1=O [Example 8, hydrochloride]
Data returned: 38

* * *

# assay-target: recombinant human MAO-B (monoamine oxidase-B) (Homo sapiens, UniProt P27338)
# Construct: purchased Sigma-Aldrich
# Sequence (P27338 1-520): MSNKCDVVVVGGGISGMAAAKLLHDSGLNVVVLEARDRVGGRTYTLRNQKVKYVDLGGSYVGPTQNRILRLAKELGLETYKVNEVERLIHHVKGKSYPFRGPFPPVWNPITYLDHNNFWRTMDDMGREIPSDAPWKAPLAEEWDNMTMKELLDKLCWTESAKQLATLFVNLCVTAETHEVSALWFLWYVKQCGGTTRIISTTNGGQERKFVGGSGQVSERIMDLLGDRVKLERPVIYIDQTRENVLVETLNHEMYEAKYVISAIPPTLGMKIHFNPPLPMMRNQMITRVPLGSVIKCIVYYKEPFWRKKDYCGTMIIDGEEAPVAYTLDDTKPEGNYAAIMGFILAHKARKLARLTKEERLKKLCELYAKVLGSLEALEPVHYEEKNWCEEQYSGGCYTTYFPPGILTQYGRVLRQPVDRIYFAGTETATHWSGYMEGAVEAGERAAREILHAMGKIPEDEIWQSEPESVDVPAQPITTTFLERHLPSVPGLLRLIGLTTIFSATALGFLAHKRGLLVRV
# test-description: Activity on recombinant human MAO-B, Amplex Red method, 1 mM benzylamine substrate
# Assay type: biochemical
# experimental-setup: 1 mM benzylamine substrate, read-out: Inhibitory Activity (IC50, nM) MAO-B
Counter-ions that a name gives are not always drawn.
# key: entry, value: IC50
Report the figure in nM without appending any unit label.

{"compound": "NC/C(=C\\F)Cn1ncn(-c2cnc(-c3cccc(-c4nc[nH]n4)c3)cn2)c1=O", "IC50, nM": 41}
{"compound": "NC/C(=C\\F)Cn1ncn(-c2cccc(-c3ccc4c(c3)OCO4)n2)c1=O", "IC50, nM": 1160}
{"compound": "Cn1cc(C#Cc2cccc(-n3cnn(C/C(=C/F)CN)c3=O)n2)cn1 [Example 257, hydrochloride]", "IC50, nM": 5700}
{"compound": "NC/C(=C\\F)Cn1ncn(-c2cc(/C=C/c3ccccc3)ccn2)c1=O [Example 236, hydrochloride]", "IC50, nM": 16}
{"compound": "NC/C(=C\\F)Cn1ncn(-c2cnc(-c3ccc4cn[nH]c4c3)cn2)c1=O", "IC50, nM": 10.5}
{"compound": "Cc1cc(-n2cnn(C/C(=C/F)CN)c2=O)ncc1-c1cccc(-c2nc[nH]n2)c1", "IC50, nM": 1940}

Data request: State its IC50: NC/C(=C\F)Cn1ncn(-c2cccc(-c3cccc4c3oc3ccccc34)n2)c1=O [Example 203, hydrochloride]
Data returned: 73

Data request: State its IC50: `NC/C(=C\F)Cn1ncn(-c2ncc(-c3ccc4c(c3)NCC4=O)cc2F)c1=O`
Data returned: 740

Data request: State its IC50: `CC(=O)Nc1ccc(-c2ccnc(-n3cnn(C/C(=C/F)CN)c3=O)c2)cc1`
Data returned: 2420

Data request: State its IC50: Cc1cc(-c2ccc3c(c2)NC(=O)OC3)cnc1-n1cnn(C/C(=C/F)CN)c1=O [Example 156, hydrochloride]
Data returned: 26000

Data request: State its IC50: NC/C(=C\F)Cn1ncn(-c2ncc(-c3ccc4sc(N)nc4c3)cc2F)c1=O [Example 164, hydrochloride]
Data returned: 183

Data request: State its IC50: `CC(C)c1nc(-c2cccc(-c3cccc(-n4cnn(C/C(=C/F)CN)c4=O)n3)c2)no1`
Data returned: 880

Data request: State its IC50: NC/C(=C\F)Cn1ncn(-c2ccnc(-c3ccc4c(c3)OCO4)c2)c1=O [Example 209, hydrochloride]
Data returned: 17

Data request: State its IC50: CS(=O)(=O)c1ccc(-c2cnc(-n3cnn(C/C(=C\F)CN)c3=O)s2)cc1 [Example 226, hydrochloride]
Data returned: 11.4

* * *

# assay-target: recombinant human VAP-1 (Homo sapiens)
# Construct: purchased R&D systems
# test-description: Activity on recombinant human VAP-1, Amplex Red HRP-coupled hydrogen peroxide assay, benzylamine substrate
# Format: biochemical
# experimental-setup: recombinant human VAP-1, benzylamine substrate, 30 min preincubation at 37° C.; read-out: Inhibitory Activity (IC50, nM) human VAP-1
Structures can show the parent of a compound that is named as a salt.
# key: entry, value: IC50
Report the figure in nM without appending any unit label.

{"compound": "NC/C(=C\\F)Cn1ncn(-c2cccc(-c3ccc(-c4ccc5c(c4)OCO5)cc3)c2)c1=O [Example 70, hydrochloride]", "assay-target": "recombinant human VAP-1 (Homo sapiens)", "obs-value": 0.63}
{"compound": "Cc1cc(-c2ccc(-c3nnc[nH]3)cc2)cnc1-n1cnn(C/C(=C/F)CN)c1=O", "assay-target": "recombinant human VAP-1 (Homo sapiens)", "obs-value": 0.62}

Shift focus to the following entry.
Data request: Given NC/C(=C\F)Cn1ncn(-c2cccc(-c3cccc(-c4ccc5c(c4)OCO5)c3)c2)c1=O [Example 71, hydrochloride] , report its IC50 on recombinant human VAP-1 (Homo sapiens).
Data returned: 1

* * *

# assay-target: recombinant human MAO-B (monoamine oxidase-B) (Homo sapiens, UniProt P27338)
# Construct: purchased Sigma-Aldrich
# test-description: Activity on recombinant human MAO-B, Amplex Red method, 1 mM benzylamine substrate
# Type: biochemical
# experimental-setup: 1 mM benzylamine, read-out: Inhibitory Activity (IC50, nM) MAO-B
Where a name gives a salt, the structure may show the parent alone.
property-label: IC50

{"compound": "NC/C(=C\\F)Cn1ncn(-c2ccc(OCc3ccccc3)cc2)c1=O [Example 8, hydrochloride]", "IC50": "10 nM"}
{"compound": "CC(=O)Nc1ccc(-c2cnc(-n3cnn(C/C(=C/F)CN)c3=O)c(C)c2)cc1 [Example 134, hydrochloride]", "IC50": "> 10000 nM"}
{"compound": "CC(C)n1cc(-c2cccc(-n3cnn(C/C(=C/F)CN)c3=O)c2)ccc1=O [Example 90, hydrochloride]", "IC50": "> 10000 nM"}

Shift focus to the following entry.
Data request: State its IC50: `Cc1c(-c2ccc(S(C)(=O)=O)cc2)cccc1-n1cnn(C/C(=C/F)CN)c1=O`
Data returned: > 10000 nM

* * *

# assay-target: recombinant human VAP-1 (Homo sapiens, UniProt Q16853)
# Construct: purchased R&D systems
# Sequence (Q16853 1-763): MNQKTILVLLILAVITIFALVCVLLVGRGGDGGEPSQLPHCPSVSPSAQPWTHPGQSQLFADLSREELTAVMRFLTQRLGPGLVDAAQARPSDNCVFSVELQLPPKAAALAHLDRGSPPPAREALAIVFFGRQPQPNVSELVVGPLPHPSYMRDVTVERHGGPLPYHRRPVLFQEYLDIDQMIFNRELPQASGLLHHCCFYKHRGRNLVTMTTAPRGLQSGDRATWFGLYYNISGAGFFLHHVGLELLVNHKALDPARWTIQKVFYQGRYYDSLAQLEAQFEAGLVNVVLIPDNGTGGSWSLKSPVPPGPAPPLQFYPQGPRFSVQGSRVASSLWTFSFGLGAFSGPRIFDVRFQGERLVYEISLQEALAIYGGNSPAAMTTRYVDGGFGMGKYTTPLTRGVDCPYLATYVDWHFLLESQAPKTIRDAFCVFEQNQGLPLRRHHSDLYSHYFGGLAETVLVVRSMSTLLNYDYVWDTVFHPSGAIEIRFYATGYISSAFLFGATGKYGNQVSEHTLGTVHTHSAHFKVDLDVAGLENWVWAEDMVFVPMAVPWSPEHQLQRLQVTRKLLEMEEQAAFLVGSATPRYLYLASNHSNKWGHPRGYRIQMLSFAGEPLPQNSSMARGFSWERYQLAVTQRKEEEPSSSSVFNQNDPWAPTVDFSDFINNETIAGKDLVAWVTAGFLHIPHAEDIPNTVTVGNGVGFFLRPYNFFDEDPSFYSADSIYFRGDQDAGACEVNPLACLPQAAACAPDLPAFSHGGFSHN
# test-description: Activity on recombinant human VAP-1, Amplex Red HRP-coupled hydrogen peroxide assay, benzylamine substrate
# Type: biochemical
# experimental-setup: recombinant human VAP-1, benzylamine substrate, 30 min preincubation at 37° C.; read-out: Inhibitory Activity (IC50, nM) human VAP-1
Counter-ions that a name gives are not always drawn.
# note: exactly 1 nM is not below, so it is NOT MET; use MET for IC50 strictly under it

Examples from the recorded data:
{"compound": "NC/C(=C/F)Cn1ncn(-c2ccc(Br)cn2)c1=O [Example 29, hydrochloride]", "group-label": "NOT MET"}
{"compound": "CC(=O)c1ccc(-c2ccc(-n3cnn(C/C(=C\\F)CN)c3=O)cc2)s1 [Example 42, hydrochloride]", "group-label": "MET"}
{"compound": "NC/C(=C/F)Cn1ncn(-c2cccc(-c3ccc4c(c3)OCO4)c2)c1=O [Example 92, hydrochloride]", "group-label": "NOT MET"}
{"compound": "CC(C)n1cc(-c2cccc(-n3cnn(C/C(=C/F)CN)c3=O)c2)ccc1=O [Example 90, hydrochloride]", "group-label": "NOT MET"}
{"compound": "NC/C(=C/F)Cn1ncn(-c2cccc(-c3ccc(-c4nnc[nH]4)cc3)c2)c1=O", "group-label": "MET"}

Data request: Just wondering, is IC50 of NC/C(=C/F)Cn1ncn(-c2ccc(Br)cc2F)c1=O [Example 11, hydrochloride] below 1 nM?
Data returned: NOT MET

Data request: Just wondering, is IC50 of NC/C(=C\F)Cn1ncn(-c2cccc(-c3cccnc3)c2)c1=O [Example 82, hydrochloride] below 1 nM?
Data returned: MET

Data request: Just wondering, is IC50 of NC/C(=C\F)Cn1ncn(-c2ccc(Br)nc2)c1=O [Example 25, hydrochloride] below 1 nM?
Data returned: NOT MET
